# Target: Alcalase (Bacillus licheniformis)
# Sequence (P00780 106-379): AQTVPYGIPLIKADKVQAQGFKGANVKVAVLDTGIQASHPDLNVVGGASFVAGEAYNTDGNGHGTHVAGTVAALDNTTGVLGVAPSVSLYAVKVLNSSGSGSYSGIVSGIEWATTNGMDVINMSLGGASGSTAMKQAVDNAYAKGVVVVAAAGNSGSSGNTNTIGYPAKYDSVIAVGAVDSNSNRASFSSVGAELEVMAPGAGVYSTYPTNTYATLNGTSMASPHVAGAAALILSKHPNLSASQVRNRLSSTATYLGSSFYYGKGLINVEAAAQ
Entries and their measured pKi follow.
On this scale, pKi is minus log10 of a concentration expressed in M (mol/L).

>  <Smiles input>
OB(O)c1ccc(Cl)s1

>  <pKi>
3.52

$$$$

# get_value(readout='pKi', item= CCCc1ccc(B(O)O)s1 )
2.82

# get_value(readout='pKi', item= OB(O)c1ccco1 )
2.52

# get_value(readout='pKi', item= CCc1ccc(B(O)O)s1 )
3.15

# get_value(readout='pKi', item= OB(O)c1cccc2oc3ccccc3c12 )
2.96

# get_value(readout='pKi', item= OB(O)c1cc2ccccc2o1 )
3.00

# get_value(readout='pKi', item= OB(O)c1cc2ccccc2s1 )
2.70

# get_value(readout='pKi', item= COc1ccsc1B(O)O )
2.52

# get_value(readout='pKi', item= Cc1csc(B(O)O)c1 )
2.74

# get_value(readout='pKi', item= OB(O)c1sccc1Br )
2.70

# get_value(readout='pKi', item= OB(O)c1cccc2sc3ccccc3c12 )
3.05

# get_value(readout='pKi', item= Cc1ccc(B(O)O)s1 )
2.70
